experimental-target: A1PI (Homo sapiens)
Construct: Human plasma is currently the only approved source of therapeutic AlPI
Sequence (P01009 25-418): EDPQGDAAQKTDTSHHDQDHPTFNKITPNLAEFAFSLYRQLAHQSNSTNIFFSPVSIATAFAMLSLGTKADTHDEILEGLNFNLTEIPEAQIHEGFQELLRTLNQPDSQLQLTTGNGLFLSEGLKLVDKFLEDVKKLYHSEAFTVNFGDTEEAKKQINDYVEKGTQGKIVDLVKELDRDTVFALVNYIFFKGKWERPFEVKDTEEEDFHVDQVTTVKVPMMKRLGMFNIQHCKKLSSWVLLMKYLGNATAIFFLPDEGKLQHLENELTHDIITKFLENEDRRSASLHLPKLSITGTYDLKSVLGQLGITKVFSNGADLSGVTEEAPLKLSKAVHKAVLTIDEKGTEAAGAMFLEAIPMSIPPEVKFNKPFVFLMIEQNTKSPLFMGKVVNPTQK
method-notes: Purification of A1PI from Effluent II+III on peptide column, A1PI mass balance
Type: binding
study-conditions: Table 11; A1PI; 1 ml Eff. II+III, 4° C.
Ends that are not written are not given here.
measured-quantity: Percent Eluted by Fraction, 2% Acetic Acid (%)

{"substance": "V I V L V R: VIWLVR with Trp at position 3 replaced by Val (VIVLVR)", "endpoint-value": 59}

[a] VIFLVR
[b] V I N L V R: VIWLVR with Trp at position 3 replaced by Asn (VINLVR)
Req: In the pair a and b , the larger recorded Percent Eluted by Fraction, 2% Acetic Acid belongs to which? Give the label under which the chosen entry appears.
Resp: a
